# measurement description: Lipophilicity (LogD), shake flask
# Type: physicochemical
# conditions: 1-octanol / phosphate buffer, octanol-water, phosphate buffer pH 7.4
Reported logD at 10 min is given for each of the following molecules.

>  <molecule>
CCNC(=O)[C@H]1O[C@@H](n2cnc3c(NC(CC)CC)nc(NCCNC(=O)Nc4cc[n+](C)cc4)nc32)[C@H](O)[C@@H]1O

>  <logD at 10 min>
< -1

$$$$
>  <molecule>
CCNC(=O)[C@H]1O[C@@H](n2cnc3c(NCC(c4ccccc4)c4ccccc4)nc(NCCNC(=O)Nc4cc[n+](C)cc4)nc32)[C@H](O)[C@@H]1O

>  <logD at 10 min>
-0.35

$$$$
>  <molecule>
CCNC(=O)[C@H]1O[C@@H](n2cnc3c(NC(CC)CC)nc(NCCNC(=O)Nc4ccncc4)nc32)[C@H](O)[C@@H]1O

>  <logD at 10 min>
2

$$$$

(Q) State its logD at 10 min: CCNC(=O)[C@H]1O[C@@H](n2cnc3c(N)nc(NCCc4ccc(CCC(=O)O)cc4)nc32)[C@H](O)[C@@H]1O [CGS21680, reference compound]
(A) < -1
